experiment: Cell Counting Kit-8 assay of cell viability on P815 cells; type: cell-based; settings: mouse, P815 mastocytoma cells, 0.1 mg/mL, read-out: Cell viability (%) Mean ± SD
assay_endpoint: viability at 18 h, 0.1 mg/mL (%)
Write the number in % without appending the unit.

Recorded viability at 18 h, 0.1 mg/mL (compound C=C(CC[C@@H](C(=O)O)[C@H]1CC[C@@]2(C)C3=CC[C@H]4C(C)(C)[C@@H](O)CC[C@]4(C)C3=CC[C@]12C)C(C)C [AR101-DS4, Dehydroeburicoic Acid] ): 49.1

* * *

Assay: Cell Counting Kit-8 assay of cell viability on P815 cells
Assay type: cell-based
Settings: mouse, P815 mastocytoma cells, 0.04 mg/mL, read-out: Cell viability (%) Mean ± SD
Protocol: Mouse mastocytoma cells purchased from the Bioresource Collection and Research Center (Hsinchu City, Taiwan) and were cultured with Dulbecco's modified Eagle's (DMEM) medium (Gibco, Carlsbad, California, USA) that was supplemented with 10% fetal bovine serum (Gibco, Carlsbad, California, USA), 100 U/ml penicillin, and 100 μg/ml streptomycin. 1×10^5 cells per well of P815 cells were pretreated with terpenoids for 18 h. […] ODcontrol is the absorbance of cells treated with 0.1% DMSO only. […]
assay_endpoint: viability at 18 h, 0.04 mg/mL (%)
Write the number in % without appending the unit.

Recorded viability at 18 h, 0.04 mg/mL (molecule C=C(CC[C@@H](C(=O)O)[C@H]1CC[C@@]2(C)C3=CC[C@H]4C(C)(C)[C@@H](O)CC[C@]4(C)C3=CC[C@]12C)C(C)C [AR101-DS4, Dehydroeburicoic Acid] ): 69.3

* * *

assay: Cell Counting Kit-8 assay of cell viability on P815 cells; assay type: cell-based; settings: mouse, P815 mastocytoma cells, 0.06 mg/mL, read-out: Cell viability (%) Mean ± SD
assay_endpoint: viability at 18 h, 0.06 mg/mL (%)
Write the number in % without appending the unit.

Recorded viability at 18 h, 0.06 mg/mL (compound C=C(CC[C@@H](C(=O)O)[C@H]1CC[C@@]2(C)C3=CC[C@H]4C(C)(C)[C@@H](O)CC[C@]4(C)C3=CC[C@]12C)C(C)C [AR101-DS4, Dehydroeburicoic Acid] ): 49.7

* * *

Assay: Cell Counting Kit-8 assay of cell viability on P815 cells
Type: cell-based
Conditions: mouse, P815 mastocytoma cells, 0.02 mg/mL, read-out: Cell viability (%) Mean ± SD
Description: Mouse mastocytoma cells purchased from the Bioresource Collection and Research Center (Hsinchu City, Taiwan) and were cultured with Dulbecco's modified Eagle's (DMEM) medium (Gibco, Carlsbad, California, USA) that was supplemented with 10% fetal bovine serum (Gibco, Carlsbad, California, USA), 100 U/ml penicillin, and 100 μg/ml streptomycin. 1×10^5 cells per well of P815 cells were pretreated with terpenoids for 18 h. […] ODcontrol is the absorbance of cells treated with 0.1% DMSO only. […]
assay_endpoint: viability at 18 h, 0.02 mg/mL (%)
Write the number in % without appending the unit.

Recorded viability at 18 h, 0.02 mg/mL (compound C=C(CC[C@@H](C(=O)O)[C@H]1CC[C@@]2(C)C3=CC[C@H]4C(C)(C)[C@@H](O)CC[C@]4(C)C3=CC[C@]12C)C(C)C [AR101-DS4, Dehydroeburicoic Acid] ): 181

* * *

assay: Cell Counting Kit-8 assay of cell viability on P815 cells; format: cell-based; conditions: mouse, P815 mastocytoma cells, 1 mg/mL, read-out: Cell viability (%) Mean ± SD
assay_endpoint: viability at 18 h, 1 mg/mL (%)
Write the number in % without appending the unit.

Recorded viability at 18 h, 1 mg/mL (molecule C=C1C(=O)O[C@H]2/C=C(\C)CC3C=C(CC/C=C(\C)CC[C@H]12)C(=O)O3 (stereo partly shown) [AR100-DS1, Ovatodiolide] ): 42.4
